Before we begin, note that these IC50 values for Xanthine dehydrogenase/oxidase (Bos taurus) originate from several publications.
Experimental Endpoint: IC50 (nM)

Please review the entries below; each comes with its answer.
N#Cc1cc(-c2ccc(C(=O)O)c(O)c2)n2cc(F)cc(F)c12: 6
Cc1ccn2c(-c3ccc(C(=O)O)c(O)c3)cc(C#N)c2c1F: 3

[P] N#Cc1cn(-c2ccc(C(=O)O)c(O)c2)c2c(F)cccc12
[Q] Cc1nc(-c2ccc(N3CCCCC3)c(Br)c2)sc1C(=O)O
[R] N#Cc1cc(-c2ncc(C(=O)O)s2)cc2ccccc12
[S] Cc1ccc(-c2cn(-c3ccc(C(=O)O)cc3)cc2C#N)s1
[T] N#Cc1cn(-c2ccc(C(=O)O)cc2)c2cc(CO)ccc12
Q) Highest IC50 first, then in falling order down to the smallest. Rank the items, then write their labels in that order.
A) T, P, S, R, Q

[I] N#Cc1cn(-c2ccc(C(=O)O)cc2)c2ccc(OCCO)cc12
[II] CCC(CC)COc1c(Cl)cc(-c2nc(C)c(C(=O)O)s2)cc1Cl
Q) # min-compare on IC50 between I and II Could you answer with the label of the item you picked?
A) II

[P] N#CCCCOc1ccc(-c2ccc(C(=O)O)s2)cc1C#N
[Q] Cc1nc(-c2ccc(OCCC(C)C)c([N+](=O)[O-])c2)sc1C(=O)O
[R] CS(=O)(=O)Nc1ccc(-c2ccc3c(c2)c(C#N)cn3-c2ccc(C(=O)O)cc2)cc1
[S] N#Cc1cc(-c2ccc(C(=O)O)c(O)c2)n2cccc(F)c12
[T] Cc1nc(-c2ccc(N3CCCCC3)c(Cl)c2)sc1C(=O)O
Q) Highest IC50 first, then in falling order down to the smallest. Rank the items, then write their labels in that order.
A) P, R, S, Q, T
(P: 13 nM, R: 7.5 nM, S: 5 nM, Q: 0.67 nM, T: 0.24 nM)

[1] N#Cc1cc(-c2ccc(C(=O)O)c(N)c2)n2ccccc12
[2] COc1cc2c(C#N)cn(-c3ccc(C(=O)O)cc3)c2cc1Cl
[3] CC(C)COc1ccc2c(c1)c(C#N)cn2-c1ccc(C(=O)O)c(O)c1
Q) Sort ascending by IC50. Rank the items, then write their labels in that order.
A) 1, 2, 3

[I] CS(=O)(=O)c1ccc(-c2ccc3c(c2)c(C#N)cn3-c2ccc(C(=O)O)cc2)cc1
[II] N#Cc1cc(-c2ccc(C(=O)O)c(O)c2)n2ccc(-c3cnco3)cc12
[III] N#Cc1cn(-c2ccc(C(=O)O)cc2)c2ccc(OCc3ccccc3)cc12
[IV] COc1nc(-c2ccc(OC(C)C)cc2)sc1C(=O)O
[V] Cc1nc(-c2ccc(OCC(C)C)c(Cl)c2)sc1C(=O)O
Q) Sort ascending by IC50. Rank the items, then write their labels in that order.
A) V, II, I, III, IV
(V: 2.1 nM, II: 4 nM, I: 10.9 nM, III: 22.4 nM, IV: 130 nM)

[I] N#Cc1cc(-c2ccc(C(=O)O)c(O)c2)nc2ccccc12
[II] N#Cc1cn(-c2ccc(C(=O)O)cc2)c2ccc(OCCOCc3ccccc3)cc12
Q) # min-compare on IC50 between I and II Could you answer with the label of the item you picked?
A) I

[a] COc1ccc(-c2nn(-c3ccc(C(=O)O)cc3)cc2C#N)cc1
[b] Cc1nc(-c2ccc(OCc3ccc(F)cc3)cc2)sc1C(=O)O
[c] Cc1ccc2c(C#N)cc(-c3ccc(C(=O)O)cc3)n2c1
Q) Highest IC50 first, then in falling order down to the smallest. Rank the items, then write their labels in that order.
A) b, c, a
(b: 31 nM, c: 10 nM, a: 3.77 nM)

[I] N#Cc1cn(-c2ccc(C(=O)O)c(O)c2)c2cc(OCCNC(=O)OCc3ccccc3)ccc12
[II] Cc1ccc2c(c1)c(C#N)cn2-c1ccc(C(=O)O)cc1
Q) # min-compare on IC50 between I and II Could you answer with the label of the item you picked?
A) II
(II: 13.8 nM, I: 41.5 nM)
